- Test system: mouse model of ATN or ischemia/reperfusion injury
- experimentSummary: Mouse model of ATN (30 min clamp, contralateral nephrectomy): plasma creatinine
- Type: in vivo, mice
- runConditions: mice, 30 minutes of ischemia; 10 μg protein or single dose, 15 min prior to ischemia
readoutName: protection against ATN (creatinine, FIG. 17A)

molecule | reportedValue
apo-NGAL:Sid: BL-21-cloned NGAL reconstituted with iron-free enterochelin (protein, UniProt P80188 21-198, looked up, complexed with iron-free enterochelin, BL-21-cloned NGAL reconstituted with iron-free enterochelin) Neutrophil …: QDSTSDLIPAPPLSKVPLQQNFQDNQFQGKWYVVGLAGNAILREDKDPQKMYATIYELKEDKSYNVTSVLFRKKKCDYWIRTFVPGCQPGEFTLGNIKSYPGLTSYLVRVVSTNYNQHAMVFFKKVSQNREYFKITLYGRTKELTSELKENFIRFSKSLGLPENHIVFPVPIDQCIDG | protective effect
apo-NGAL:Sid:Fe: BL-21-cloned NGAL reconstituted with iron-saturated enterochelin (protein, UniProt P11672 21-200, looked up, iron-saturated enterochelin, BL-21-cloned NGAL reconstituted with iron-saturated enterochelin) Neutrophil …: QDSTQNLIPAPSLLTVPLQPDFRSDQFRGRWYVVGLAGNAVQKKTEGSFTMYSTIYELQENNSYNVTSILVRDQDQGCRYWIRTFVPSSRAGQFTLGNMHRYPQVQSYNVQVATTDYNQFAMVFFRKTSENKQYFKITLYGRTKELSPELKERFTRFAKSLGLKDDNIIFSVPTDQCIDN | protective effect
